Would you mind telling me the reported CellTox Green cytotoxicity fluorescence of each entry?
Test system: MV4-11
test.details: CellTox Green cytotoxicity fluorescence relative to DMSO vehicle (fold of vehicle RFU); higher = more cell death (loss of membrane integrity), active = 2 or more
details: 1 µM; 24 h
Give a plain numeric answer without units written out.

Suppose we examine the compound `O=C(O)CSc1cc(NS(=O)(=O)c2ccc(Br)cc2)c2ccccc2c1O` ; what CellTox Green cytotoxicity fluorescence value has been reported?
0.983

Note, next up: `CCCCCCCCCCCC1=C(O)C(=O)C=C(O)C1=O`
1.02

Quick one: `CC(C)[C@H](CO)Nc1nc(Nc2cccc(Cl)c2)c2ncn(C(C)C)c2n1`
1

// next record C=CC(=O)N1CCN(C(=O)CNc2cc(I)c(Cl)cc2O)CC1 [K-Ras(G12C) inhibitor 12]
0.993

Value source: the supplement of paper PMC7595190
